- System: tobacco mosaic virus (TMV)
- procedureText: Anti-TMV inactivation activity (inactivation mode), compound mixed with TMV before inoculation of tobacco leaves
- Type: in vivo
- conditionDetails: Tobacco mosaic virus, read-out: Anti-TMV activity, Inactivation effect (inhibition)
readoutLabel: inhibition at 100 µg/mL
Provide the measurement as a number trailed by its unit.

compound: CC(C)(C)OC(=O)N1CCC(c2nc(/C=C(\NC(=O)c3ccccc3)C(=O)N3CCC(O)(c4ccc(Br)cc4)CC3)cs2)CC1 [Compound 29]
inhibition at 100 µg/mL: 0%

compound: O=C(NC1CC1)/C(=C/c1ccccc1)NC(=O)c1ccccc1 [Compound 39]
inhibition at 100 µg/mL: 0%

compound: O=C(NC(Cc1ccccc1)C(=O)N1CCC(O)(c2ccc(Br)cc2)CC1)C1CCCCC1 (centres unmarked) [Compound 50]
inhibition at 100 µg/mL: 34%

compound: CC(C)(C)OC(=O)N1CCC(c2nc(/C=C(\NC(=O)c3ccccc3)C(=O)NCc3ccc(Br)cc3)cs2)CC1 [Compound 47]
inhibition at 100 µg/mL: 0%

compound: Cc1ccc(/C=C(\NC(=O)c2ccccc2)C(=O)N2CCC(O)(c3ccc(Br)cc3)CC2)cc1 [Compound 15]
inhibition at 100 µg/mL: 0%

Query: inhibition at 100 µg/mL; subject: COC(=O)[C@H](C)NC(=O)/C(=C/c1ccccc1)NC(=O)c1ccccc1 [Compound 34] 0%

Query: inhibition at 100 µg/mL; subject: O=C(N/C(=C\c1ccccc1)C(=O)N1CCC(O)(c2ccc(Br)cc2)CC1)C1CC1 [Compound 1] 83%

Query: inhibition at 100 µg/mL; subject: O=C(N/C(=C\c1ccc(F)cc1)C(=O)N1CCC(O)(c2ccc(Br)cc2)CC1)c1ccccc1 [Compound 17] 1%

* * *

Recorded inhibition at 100 µg/mL values for a group of compounds are listed next.
- Test system: tobacco mosaic virus (TMV)
- procedureText: Anti-TMV inactivation activity (inactivation mode), compound mixed with TMV before inoculation of tobacco leaves
- Type: in vivo
- conditionDetails: Tobacco mosaic virus, read-out: Anti-TMV activity, Inactivation effect (inhibition)
Please reply with the bare figure in % and do not write the unit itself.

compound: O=C(NCc1cccc(Br)c1)/C(=C/c1ccccc1)NC(=O)c1ccccc1 [Compound 51]
readoutLabel: inhibition at 100 µg/mL
observedMeasurement: 69

compound: O=C(N/C(=C\c1ccccc1)C(=O)N1CCC(O)CC1)c1ccccc1 [Compound 45]
readoutLabel: inhibition at 100 µg/mL
observedMeasurement: 22

compound: CONC(=O)/C(=C/c1csc(C2CCN(C(=O)OC(C)(C)C)CC2)n1)NC(=O)c1ccccc1 [Compound 42]
readoutLabel: inhibition at 100 µg/mL
observedMeasurement: 0

Query: inhibition at 100 µg/mL; subject: O=C(N/C(=C\c1ccco1)C(=O)N1CCC(O)(c2ccc(Br)cc2)CC1)c1ccccc1 [Compound 25] 31

* * *

- Tested on: Alternaria solani
- procedureText: Fungicidal activity, fungi growth rate method, AS
- Type: cell-based
- conditionDetails: Alternaria solani; 50 μg/mL; read-out: Fungicidal activity (inhibition) against AS: Alternaria solani
readoutLabel: inhibition at 50 µg/mL

Query: inhibition at 50 µg/mL; subject: `O=C(N/C(=C\c1ccco1)C(=O)N1CCC(O)(c2ccc(Br)cc2)CC1)c1ccccc1` < 30%

* * *

Recorded inhibition at 50 µg/mL values for a group of compounds are listed next.
- Test system: Botrytis cinerea
- procedureText: Fungicidal activity, fungi growth rate method, BC
- Type: cell-based
- conditionDetails: Botrytis cinerea; 50 μg/mL; read-out: Fungicidal activity, inhibition, BC
Please reply with the bare figure in % and do not write the unit itself.

itemSmiles: O=C(N/C(=C\c1ccccc1)C(=O)N1CCOCC1)c1ccccc1
inhibition at 50 µg/mL [%]: 4
--
itemSmiles: CC(C)(C)OC(=O)N1CCC(c2nc(/C=C(\NC(=O)c3ccccc3)C(=O)O)cs2)CC1
inhibition at 50 µg/mL [%]: 41
--
itemSmiles: COc1ccc(C(=O)N/C(=C\c2ccccc2)C(=O)N2CCC(O)(c3ccc(Br)cc3)CC2)cc1
inhibition at 50 µg/mL [%]: 13

Consider now this further compound.
Query: inhibition at 50 µg/mL; subject: `O=C(N/C(=C\c1ccccc1)C(=O)N1CCC(O)(c2ccc(Br)cc2)CC1)c1ccc(C(F)(F)F)cc1` 13
